Taken from patent US11420961B2.

Please go through the items and note down their IC50.
SYSTEM: MAGL (recombinant wild-type) (Homo sapiens)
Sequence (Q99685 1-303): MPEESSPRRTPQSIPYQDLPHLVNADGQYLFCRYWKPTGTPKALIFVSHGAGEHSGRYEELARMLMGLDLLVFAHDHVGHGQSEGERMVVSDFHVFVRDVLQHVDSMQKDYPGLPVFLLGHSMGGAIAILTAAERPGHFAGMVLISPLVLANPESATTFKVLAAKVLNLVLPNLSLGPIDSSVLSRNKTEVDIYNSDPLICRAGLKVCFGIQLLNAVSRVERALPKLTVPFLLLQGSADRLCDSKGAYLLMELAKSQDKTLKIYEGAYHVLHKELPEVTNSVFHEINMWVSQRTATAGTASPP
MEASUREMENT NOTES: 4-NPA assay: MAGL inhibitory activity by hydrolysis of 4-nitrophenylacetate, absorbance at 405 nm
TEST CONTEXT: 4-NPA assay (values without footnote [a])
Answers are plain numbers, in nM.

Check out these entries, answers already filled in.
Lab note: need IC50 for Cc1cccc([C@H](c2ccccc2)C2CCN(C(=O)c3ccc4c(c3)NC(=O)CO4)CC2)c1 (single isomer, unassigned) on MAGL (recombinant wild-type) (Homo sapiens), anyone have it?
0.5

Lab note: need IC50 for O=C1CCc2c(cc(C(=O)N3CCC(C(c4ccc(F)cc4)c4ccc(F)cc4)CC3)cc2OCCF)N1 on MAGL (recombinant wild-type) (Homo sapiens), anyone have it?
7.9

Lab note: need IC50 for O=C1COc2ccc(C(=O)N3CCC(c4c[nH]c5ccccc45)CC3)cc2N1 on MAGL (recombinant wild-type) (Homo sapiens), anyone have it?
33

Lab note: need IC50 for Cn1cc(C2CCN(C(=O)c3ccc4c(c3)NC(=O)CO4)CC2)c2ccccc21 on MAGL (recombinant wild-type) (Homo sapiens), anyone have it?
28.9

Lab note: need IC50 for O=C1COc2ccc(C(=O)N3CCC(C(c4ccccc4)c4ccc(F)nc4)CC3)cc2N1 (single isomer, unassigned) [Example 102] on MAGL (recombinant wild-type) (Homo sapiens), anyone have it?
3.5

Lab note: need IC50 for Cc1ccc(C(c2ccc(F)cc2)C2CCN(C(=O)c3ccc4c(c3)NC(=O)CO4)CC2)cc1 (single isomer, unassigned) [Example 113] on MAGL (recombinant wild-type) (Homo sapiens), anyone have it?
0.4

Lab note: need IC50 for COc1ccc2[nH]c(C)c(C3CCN(C(=O)c4ccc5c(c4)NC(=O)CO5)CC3)c2c1 on MAGL (recombinant wild-type) (Homo sapiens), anyone have it?
440

Lab note: need IC50 for O=C1COc2ccc(C(=O)N3CCC(C(c4ccc(F)cc4)c4cccc(OCCOCCF)c4)CC3)cc2N1 (single isomer, unassigned) on MAGL (recombinant wild-type) (Homo sapiens), anyone have it?
0.4

Batch request: IC50 for each of the following compounds.
1. O=C1COc2ccc(C(=O)N3CCC(C(c4ccc(F)cc4)c4ccc(F)nc4)CC3)cc2N1 (single isomer, unassigned) [Example 115]
2. COc1ccc([C@@H](c2ccccc2)C2CCN(C(=O)c3ccc4c(c3)NC(=O)CO4)CC2)cc1 (single isomer, unassigned)
3. O=C1COc2ccc(C(=O)N3CCC(C(c4ccc(F)cc4)c4cccc(F)n4)CC3)cc2N1 (single isomer, unassigned) [Example 119]
4. O=C1COc2ccc(C(=O)N3CCC(c4cc5ccc(Cl)cc5[nH]4)CC3)cc2N1
5. O=C1COc2ccc(C(=O)N3CCC([C@@H](c4ccccc4)c4cccc(OCCF)c4)CC3)cc2N1

1.4
0.6
9.1
1110
1.1

Lab note: need IC50 for O=C1COc2ccc(C(=O)N3CCC([C@H](c4ccccc4)c4cccc(F)c4)CC3)cc2N1 on MAGL (recombinant wild-type) (Homo sapiens), anyone have it?
0.43
